AD2 (SAGE tag count): recorded values
Test system: colorectal tissue transcripts
experimental.protocol: SAGE of normal, adenoma and cancer colorectal tissue (transcript tag counts)
Design: species or system human
condition.details: SAGE library AD2
Just the number, please.

Consider the worked cases shown below.
{"macromolecule.sequence": "GGAACTGTGA (chemistry not fully specified)", "AD2 (SAGE tag count)": 18}
{"macromolecule.sequence": "AATGAGAAGG (chemistry not fully specified)", "AD2 (SAGE tag count)": 0}
{"macromolecule.sequence": "GATGACCCCC (chemistry not fully specified)", "AD2 (SAGE tag count)": 3}
{"macromolecule.sequence": "CTAGCCTCAC (chemistry not fully specified)", "AD2 (SAGE tag count)": 53}

Request: AD2 (SAGE tag count), test system colorectal tissue transcripts, entry CCCTCCCGAA (chemistry not fully specified)
14

Request: AD2 (SAGE tag count), test system colorectal tissue transcripts, entry CTTAGAGGGG (chemistry not fully specified)
1

Request: AD2 (SAGE tag count), test system colorectal tissue transcripts, entry GACATCAAGT (chemistry not fully specified)
14

* * *

System: colorectal tissue transcripts
experimental.protocol: SAGE of normal, adenoma and cancer colorectal tissue (transcript tag counts)
Set-up: species or system human
condition.details: SAGE library NC1
Dear colleague, classification is by NC1 (SAGE tag count), with ranges listed here: lower bin: < 8; middle bin: ≥ 8 and < 30; upper bin: ≥ 30

{"macromolecule.sequence": "CCGGCTTGAG (chemistry not fully specified)", "category": "lower bin"}
{"macromolecule.sequence": "GCCCACACAG (chemistry not fully specified)", "category": "middle bin"}
{"macromolecule.sequence": "ACCCACGTCA (chemistry not fully specified)", "category": "middle bin"}
{"macromolecule.sequence": "CGGTGGGACC (target site or template, no part of the molecule; chemistry not given here)", "category": "lower bin"}
{"macromolecule.sequence": "AGTGGGCTCA (chemistry not fully specified)", "category": "lower bin"}
{"macromolecule.sequence": "ATGTGGGCTC (chemistry not fully specified)", "category": "lower bin"}

Please classify: CCCCCTGCAT (chemistry not fully specified)
lower bin

Please classify: CTGGCAAAGG (chemistry not fully specified)
middle bin

Please classify: GCCCAGTGGC (chemistry not fully specified)
upper bin

* * *

AD1 (SAGE tag count): recorded values
Tested on: colorectal tissue transcripts
experimental.protocol: SAGE of normal, adenoma and cancer colorectal tissue (transcript tag counts)
Set-up: species or system human
condition.details: SAGE library AD1
Experimental: In an effort to identify potential molecular markers of early colorectal tumors, we have here analyzed gene expression in benign and malignant colorectal tumors in an unbiased and comprehensive fashion. […] The abundance of each tag provides a quantitative measure of the transcript level present within the mRNA population studied. […] For the current study, SAGE libraries derived from two samples of normal colonic epithelium, two colorectal adenomas, and two colorectal cancers were analyzed. […]

{"macromolecule.sequence": "GTGGGGGCGC (chemistry not fully specified)", "target.desc": "colorectal tissue transcripts", "AD1 (SAGE tag count)": 2}
{"macromolecule.sequence": "GCTTGGGGAT (chemistry not fully specified)", "target.desc": "colorectal tissue transcripts", "AD1 (SAGE tag count)": 2}

# input for lookup
Look up AD1 (SAGE tag count) for this sequence: GCTGTGCCTG (chemistry not fully specified)
2

* * *

Test system: colorectal tissue transcripts
experimental.protocol: SAGE of normal, adenoma and cancer colorectal tissue (transcript tag counts)
Parameters: species or system human
condition.details: SAGE library AD2
AD2 (SAGE tag count): recorded values

Consider the worked cases shown below.
{"macromolecule.sequence": "AGGTGACTGG (chemistry not fully specified)", "target.desc": "colorectal tissue transcripts", "assay.readout": "AD2 (SAGE tag count)", "test.value": 0}
{"macromolecule.sequence": "CCCCCGAAGC (chemistry not fully specified)", "target.desc": "colorectal tissue transcripts", "assay.readout": "AD2 (SAGE tag count)", "test.value": 15}
{"macromolecule.sequence": "CTGACCTGTG (chemistry not fully specified)", "target.desc": "colorectal tissue transcripts", "assay.readout": "AD2 (SAGE tag count)", "test.value": 18}
{"macromolecule.sequence": "CTCAGAACTT (chemistry not fully specified)", "target.desc": "colorectal tissue transcripts", "assay.readout": "AD2 (SAGE tag count)", "test.value": 0}

Request: AD2 (SAGE tag count), test system colorectal tissue transcripts, entry GGAACAGGGG (chemistry not fully specified)
0

Request: AD2 (SAGE tag count), test system colorectal tissue transcripts, entry GCCCAGGTCA (chemistry not fully specified)
128

Request: AD2 (SAGE tag count), test system colorectal tissue transcripts, entry GTAGCAGGTG (chemistry not fully specified)
7

Request: AD2 (SAGE tag count), test system colorectal tissue transcripts, entry GCGAAACTCG (chemistry not fully specified)
0

Request: AD2 (SAGE tag count), test system colorectal tissue transcripts, entry ACCTGGGGAG (chemistry not fully specified)
3

Request: AD2 (SAGE tag count), test system colorectal tissue transcripts, entry GCGCAGAGGT (chemistry not fully specified)
0

Request: AD2 (SAGE tag count), test system colorectal tissue transcripts, entry GCCGACCAGG (chemistry not fully specified)
8

Request: AD2 (SAGE tag count), test system colorectal tissue transcripts, entry GACCAGTGGC (chemistry not fully specified)
0

Request: AD2 (SAGE tag count), test system colorectal tissue transcripts, entry ATGGTCTACG (chemistry not fully specified)
0

Request: AD2 (SAGE tag count), test system colorectal tissue transcripts, entry ATGTGGGCTC (chemistry not fully specified)
0

Request: AD2 (SAGE tag count), test system colorectal tissue transcripts, entry CTTCCAGCTA (chemistry not fully specified)
20

Request: AD2 (SAGE tag count), test system colorectal tissue transcripts, entry GCACAGGTCA (chemistry not fully specified)
0

Request: AD2 (SAGE tag count), test system colorectal tissue transcripts, entry AGGATGGTCC (chemistry not fully specified; the letters are possibly those of the target site)
3

Request: AD2 (SAGE tag count), test system colorectal tissue transcripts, entry GCTTGGGGAT (chemistry not fully specified)
0

Request: AD2 (SAGE tag count), test system colorectal tissue transcripts, entry GCTCTTCCCC (chemistry not fully specified; the letters are possibly those of the target site)
2

Request: AD2 (SAGE tag count), test system colorectal tissue transcripts, entry GCCACGTGGA (chemistry not fully specified)
2

Request: AD2 (SAGE tag count), test system colorectal tissue transcripts, entry AACGTGCAGG (chemistry not fully specified)
6
